Here the recorded activity change is given for each entry.
Assay Overview: qHTS for Inhibitors of Inflammasome Signaling: IL-1-beta AlphaLISA Primary Screen; also: % is scaled to controls: 0 for no effect and ±100 for the full control effect
Run Conditions: THP-1 LPS/ATP IL-1B secretion, 16 h; at 57.5 µM, stronger effect = lower value
The campaign covered roughly 360,000 compounds. About 17,000 (4.7%) were called active. Roughly 5% stayed inconclusive and do not appear here. Many of the other results were omitted from the sample, so actives are more common in it than they were.
Respond numerically; units are % and should not be typed.

Input "Cc1cccc(NC(=O)COC(=O)CCc2ccccc2)c1C" . Output activity change: 5.72

Input "COC(=O)c1ccc(NC(=O)C23CC4CC(C2)CC(n2cnc(Cl)n2)(C4)C3)cc1" . Output activity change: 54.6

Input "CC(=O)Nc1ccccc1C(=O)C(=O)Nc1ccc(F)cc1" . Output activity change: 6.97

Input COc1cccc(NC(=O)C2(C)CCN2Cc2ccccc2Cl)c1 (stereo unspecified) . Output activity change: -11.6

Input O=C(NN=CC=Cc1ccccc1)C(O)C(O)C(=O)NN=CC=Cc1ccccc1 (stereo unspecified) . Output activity change: -17.2

Input "Cc1cccc(N2CCN(C(=O)COCc3cc(-c4ccc5c(c4)OCO5)on3)CC2)c1C" . Output activity change: -0.251

###

Assay Overview: qHTS for Inhibitors of Inflammasome Signaling: IL-1-beta AlphaLISA Primary Screen
Run Conditions: THP-1 LPS/ATP IL-1B secretion, 16 h; at 57.5 µM
The campaign covered roughly 360,000 compounds. About 17,000 (4.7%) were called active. Not shown: some 5% with an inconclusive outcome. Rule as the data show it: active = activity change below about -50%; inconclusive = mostly about -30% to -49%; inactive = weaker than that. The sample as a whole holds a higher share of actives than the screen did.
The reply should name one outcome from true (1) (active), false (0) (inactive)

The examples below pair each entry with its known result.
N#CCCN(C(=O)Nc1ccc(Cl)c(Cl)c1)C1CCCCC1: false (0)
COc1ccccc1CNC(=O)Cn1c(=O)oc2cc(Cl)ccc21: false (0)
CCC1Nc2ncnc(N3CCN(c4ccccc4)CC3)c2N(Cc2ccc(Cl)cc2)C1=O (stereo unspecified): false (0)
Cc1ccc2c(c1)C1CN(C)CCC1N2C(=S)Nc1ccc(OC(F)F)cc1 (stereo unspecified): true (1)
CN(C)CCOc1ccc(Cl)cc1C(C)(C)C: false (0)

Could you kindly confirm the outcome this assay logged for "O=C(NCc1ccccc1)C1=C[C@@H](C2CCCCC2)C[C@@H](OCc2ccc(CO)cc2)O1" ?
false (0)

Could you kindly confirm the outcome this assay logged for "COc1ccc(C(=O)CCC(=O)Nc2ccc(Cl)cc2)cc1" ?
false (0)

Could you kindly confirm the outcome this assay logged for "COc1cc(OC)cc(C(=O)NNC(=O)Cc2cccs2)c1" ?
false (0)

###

Assay Overview: qHTS for Inhibitors of Inflammasome Signaling: IL-1-beta AlphaLISA Primary Screen
Run Conditions: THP-1 LPS/ATP IL-1B secretion, 16 h; at 57.5 µM, stronger effect = lower value
The whole screen tested about 360,000 compounds, of which about 17,000 (4.7%) were called active. Not shown: some 5% with an inconclusive outcome. The full list was thinned out, with actives kept by preference.
Assay Endpoint: activity change (%)
Respond numerically; units are % and should not be typed.

Reference set (3 entries):
COCc1ccc(C(=O)NC2CC(C)(C)Cc3c2cnn3-c2ccc(C)cc2)o1 (stereo not given): -2.96
CCN(CC(=O)NCCCN1CCOCC1)S(=O)(=O)c1cc(Cl)ccc1Cl: -11.7
N#Cc1ccc(OCC(=O)Nc2nc(-c3ccccn3)cs2)cc1: 69.5

Input CC12CCC(=O)N1C(C(=O)Nc1ccc(F)c(F)c1F)CS2 (stereo not given) . Output activity change: 6.07

Input "CC(=O)Nc1ccccc1OC(=O)N1CCOCC1" . Output activity change: 4.54

###

Assay Overview: qHTS for Inhibitors of Inflammasome Signaling: IL-1-beta AlphaLISA Primary Screen
Run Conditions: THP-1 LPS/ATP IL-1B secretion, 16 h; at 57.5 µM, stronger effect = lower value
Among all 360,000 compounds or so, about 17,000 (4.7%) were called active. Another 5% or so got no clear call; they are omitted. The entries come from a sample that favours actives as a whole.
Assay Endpoint: activity change (%)
Respond numerically; units are % and should not be typed.

CCCCN1CC(N2CCN(Cc3cccc(C)c3)CC2)CS1(=O)=O (stereo unspecified): -1.82
c1ccc2c(CCN3CCNC[C@H]3Cc3cccc4ccccc34)cccc2c1: -12.9
COC(=O)CNS(=O)(=O)c1ccc(Cc2ccc(S(=O)(=O)NCC(=O)OC)cc2)cc1: -100
CCOC(=O)Cc1csc(SCC(=O)Nc2ccc(C)cc2F)n1: 21
O=C1Nc2ccccc2NC(c2ccc3c(c2)OCO3)=C1N(Cc1ccc(F)cc1)C(=O)c1ccco1: -23.7
COc1ccc(C2(C)ON(c3ccccc3C(F)(F)F)C2=O)cc1 (stereo unspecified): -62.1
COC(=O)CNS(=O)(=O)c1ccc(OC)cc1: -22.2
CC(=O)c1c(C)[nH]c(C(=O)COC(=O)c2cccs2)c1C: 17.9
COc1ccc(C2(O)C(=O)Nc3ccccc32)cc1 (stereo unspecified): 16
CC(=O)c1c(C)[nH]c(C(=O)COC(=O)CCOc2ccc(C)cc2)c1C: -89.1

Alright, here's another compound for you.
Input C#Cc1ccc(NC(=O)C2(C)CCN2C(=O)Cc2ccc(-c3ccccc3)cc2)cc1 (stereo unspecified) . Output activity change: -2.2

###

Here the recorded activity change is given for each entry.
Assay Overview: qHTS for Inhibitors of Inflammasome Signaling: IL-1-beta AlphaLISA Primary Screen
Run Conditions: THP-1 LPS/ATP IL-1B secretion, 16 h; at 57.5 µM, stronger effect = lower value
The whole screen tested about 360,000 compounds, of which about 17,000 (4.7%) were called active. Not shown: some 5% with an inconclusive outcome. Shown is part of a subset that was picked to be rich in actives.
Respond numerically; units are % and should not be typed.

Reference set (2 entries):
O=P(O)(CP(=O)(c1ccccc1)c1ccccc1)c1ccccc1O: -5.18
CCN(CC)C(=O)C1=C(C)N(Cc2ccc(OC)cc2)C(=O)C(CC(=O)NCCCCc2ccccc2)C1 (stereo not drawn): -14.3

Alright, here's another compound for you.
Input "CCn1cc(CN2CCC(n3nccc3NC(=O)CCCc3ccccc3)CC2)c(C)n1" . Output activity change: 40

###

Assay Overview: qHTS for Inhibitors of Inflammasome Signaling: IL-1-beta AlphaLISA Primary Screen
Run Conditions: THP-1 LPS/ATP IL-1B secretion, 16 h; at 57.5 µM, stronger effect = lower value
Description: Inflammasomes are a set of intracellular multi-protein complexes that enable autocatalytic activation of inflammatory caspases and drive the innate immune response to counter harmful agents. […] A qHTS assay, based on AlphaLISA technology, was developed to screen the Molecular Libraries Small Molecule Repository (MLSMR) to look for novel inflammasome inhibitors. The assay detects IL-1B using AlphaLISA anti-IL-1B acceptor and donor beads. […]
The campaign covered roughly 360,000 compounds. About 17,000 (4.7%) were called active. Another 5% or so got no clear call; they are omitted. This excerpt belongs to a sample that is enriched for actives.
Here the recorded activity change is given for each entry.
Respond numerically; units are % and should not be typed.

Reference set (5 entries):
COc1ccc(OC)c(C(=O)c2coc3ccc(OC)cc23)c1: 5.54
CCNC(=O)c1ccc(OCC(=O)Nc2ccc(F)cc2)c(OC)c1: -5.56
O=C(CCc1ccc(O)cc1)NN=Cc1cc(Br)ccc1O: 137
COc1ccc(C(=O)OCC(=O)Nc2cccc(C(C)=O)c2)cc1OC: 20.1
COc1cc(C(=O)N(C)Cc2cccc(OC)c2OC)ccc1OCC(=O)Nc1cccc(C(F)(F)F)c1: -57.3

Input COc1ccc(CN2CCC(C)(Oc3cccc(F)c3)C2)c2ccccc12 (stereo unspecified) . Output activity change: 6.61

###

Assay Overview: qHTS for Inhibitors of Inflammasome Signaling: IL-1-beta AlphaLISA Primary Screen
Run Conditions: THP-1 LPS/ATP IL-1B secretion, 16 h; at 57.5 µM
The whole screen tested about 360,000 compounds, of which about 17,000 (4.7%) were called active. Another 5% or so got no clear call; they are omitted. Rule as the data show it: active = activity change below about -50%; inconclusive = mostly about -30% to -49%; inactive = weaker than that. This is one part of a sample in which actives are shown more often than they occur.
The reply should name one outcome from active, inactive

CSCCC(NC(=O)COc1ccccc1)C(=O)OCCOc1ccc(F)cc1 (stereo not drawn): inactive
Cc1cc(C)nc(SCC(=O)N(C)C)n1: inactive
COC(=O)N/N=C/c1cn(CCCOc2ccc(C)cc2)c2ccccc12: active
O=C(COc1ccc(Cl)cc1)N1CCN(c2cccc(C(F)(F)F)c2)CC1: inactive
COc1cccc(CN(C)C(=O)CC[C@H]2O[C@@H](n3cnc4c(NC(=O)c5ccccc5)ncnc43)[C@H](O)[C@@H]2O)c1: inactive
CC(=O)N[C@H]1[C@H]([C@H](O)[C@H](O)CO)OC(C(=O)O)=C[C@@H]1O: inactive

Could you kindly confirm the outcome this assay logged for "Cc1onc(-c2ccccc2)c1-c1nnc(COC(=O)c2ccc(N(C)C)cc2)o1" ?
inactive

Could you kindly confirm the outcome this assay logged for "Cc1cc(C)nc(S/C=C/C(=O)c2ccccc2)n1" ?
active
